Tested on: 282377-053-R-J1-PDC complex spheroids, viability;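 further: spheroids exposed to compounds for 7 days before readout; percent of vehicle DMSO control viability with 100% = untreated-like growth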
test-details: Anticancer human tumor 282377-053-R-J1-PDC patient-derived colon adenocarcinoma cell line growth inhibition [GQUAD]
details: second compound 0.0316 µM; first compound 0.0316 µM; hits give low values
# viability, T/C listing for each entry below

{"columns": ["molecule", "viability, T/C (%)"],
 "data": [
  ["O=C(c1cc(Cc2n[nH]c(=O)c3ccccc23)ccc1F)N1CCN(C(=O)C2CC2)CC1 + Cc1cnc(CNC(=O)c2c(=O)c3ccc(N4CCCN(C)CC4)nc3n3c2sc2ccccc23)cn1", 103],
  ["C=CCn1c(=O)c2cnc(Nc3ccc(N4CCN(C)CC4)cc3)nc2n1-c1cccc(C(C)(C)O)n1 + CN(C)c1ccc(Nc2c3ccc(NC(=O)CCN4CCCC4)cc3nc3cc(NC(=O)CCN4CCCC4)ccc23)cc1", 94.2],
  ["CC1COCCN1c1cc(C2(S(C)(=N)=O)CC2)nc(-c2ccnc3[nH]ccc23)n1 (stereo not given) + Cc1[nH]c2ccc(F)cc2c1-c1nc2c3cccnc3c3ncccc3c2[nH]1", 85.5],
  ["CC(C)(O)C1CCC(Nc2ccc3ncc(-c4cccc(C(F)(F)F)c4)n3n2)CC1 (stereo not given) + Cc1cnc(CNC(=O)c2c(=O)c3ccc(N4CCCN(C)CC4)nc3n3c2sc2ccccc23)cn1", 96.9],
  ["C=CC(=O)N1CCN(c2nc(=O)n(-c3c(C)ccnc3C(C)C)c3nc(-c4c(O)cccc4F)c(F)cc23)C(C)C1 (stereo not given) + CN(C)c1ccc(Nc2c3ccc(NC(=O)CCN4CCCC4)cc3nc3cc(NC(=O)CCN4CCCC4)ccc23)cc1", 105]
]}
